assay: Partition coefficient (logP butanol/buffer); format: physicochemical; details: 1-butanol / 50 mM Tris-HCl, pH 7.4, room temperature
reported_property: Log P (butanol/buffer)

Example entries begin here.
INSERT INTO assay_data (compound, reported_property, numeric_value) VALUES
  ('CCOc1ccc(CCOCC(C(=O)O)N2CCN(CC(=O)[O-])CCN(CC(=O)[O-])CCN(CC(=O)[O-])CC2)cc1.[Gd+3] (stereo not shown) [Example 1]', 'Log P (butanol/buffer)', '−0.98'),
  ('COCC(C(=O)O)N1CCN(CC(=O)[O-])CCN(C(Cc2ccc(OCC(F)(F)C(F)F)cc2)C(=O)[O-])CCN(CC(=O)[O-])CC1.[Gd+3] (stereo not shown) [Example 45]', 'Log P (butanol/buffer)', '−0.36');

(a) CCCCOc1ccc(CCC[C@@H](C(=O)O)N2CCN(CC(=O)[O-])CCN(CC(=O)[O-])CCN(CC(=O)[O-])CC2)cc1.[Gd+3] [Example 31]
(b) CCOCCOCCOCCOc1ccc(CC(C(=O)O)N2CCN(CC(=O)[O-])CCN(C(CO)C(=O)[O-])CCN(CC(=O)[O-])CC2)cc1.[Gd+3] (stereo not shown) [Example 42]
## Input Which of the two gives a bigger number for Log P (butanol/buffer): a or b ? Reply briefly: the label of your chosen item.
## Output a
(a: 0.20, b: −1.60)

(a) CCOCCOCCOc1ccc(CCC[C@H](C(=O)O)N2CCN([C@H](CO)C(=O)[O-])CCN([C@H](CO)C(=O)[O-])CCN([C@H](CO)C(=O)[O-])CC2)cc1.[Gd+3] [Example 19]
(b) CCOCCOCCOCCOc1ccc(CC(C(=O)O)N2CCN(CC(=O)[O-])CCN(CC(=O)[O-])CCN(CC(=O)[O-])CC2)cc1.[Gd+3] (stereo not shown) [Example 10]
## Input Which of the two gives a bigger number for Log P (butanol/buffer): a or b ? Reply briefly: the label of your chosen item.
## Output a
(a: −0.95, b: −1.70)

(I) CCOc1ccc(CCCC[C@@H](C(=O)O)N2CCN(CC(=O)[O-])CCN(CC(=O)[O-])CCN(CC(=O)[O-])CC2)cc1.[Gd+3] [Example 27]
(II) CCOCCOc1ccc(CC(C(=O)O)N2CCN(CC(=O)[O-])CCN(C(COC)C(=O)[O-])CCN(CC(=O)[O-])CC2)cc1.[Gd+3] (stereo not shown) [Example 38]
(III) O=C([O-])CN1CCN(CC(=O)[O-])CCN([C@H](CO)[C@H](O)CO)CCN(CC(=O)[O-])CC1.[Gd+3] (racemic) [RC3, gadobutrol, reference compound]
## Input Sort by Log P (butanol/buffer), descending. # respond with the labels, arranged in the requested order
## Output I, II, III

---

experiment: Partition coefficient (logP butanol/buffer); assay type: physicochemical; conditions: 1-butanol / 50 mM Tris-HCl, pH 7.4, room temperature
reported_property: Log P (butanol/buffer)

INSERT INTO results (molecule, numeric_value) VALUES
  ('CCOCCOCCOc1ccc(CC(C(=O)O)N2CCN(CC(=O)[O-])CCN(C(C)C(=O)[O-])CCN(CC(=O)[O-])CC2)cc1.[Gd+3] (single isomer, unassigned) [Example 5]', '−1.52');

(1) CCOCCOc1ccc(CC(C(=O)O)N2CCN(CC(=O)[O-])CCN(C(CC)C(=O)[O-])CCN(CC(=O)[O-])CC2)cc1.[Gd+3] (single isomer, unassigned) [Example 8]
(2) O=C([O-])CN(CCN(CC(=O)[O-])CC(=O)[O-])CCN(CC(=O)[O-])C(COCc1ccccc1)C(=O)[O-].[Gd+3] (stereo not drawn) [RC2, Gd-BOPTA, reference compound]
## Input Which of the two gives a bigger number for Log P (butanol/buffer): 1 or 2 ? Reply briefly: the label of your chosen item.
## Output 1
(1: −1.04, 2: −2.07)

---

assay: Partition coefficient (logP butanol/buffer); format: physicochemical; conditions: 1-butanol / 50 mM Tris-HCl, pH 7.4, room temperature
reported_property: Log P (butanol/buffer)

INSERT INTO measurements (compound, numeric_value) VALUES
  ('CCOCCOCCOc1ccc(CC(C(=O)O)N2CCN(CC(=O)[O-])CCN(C(C)C(=O)[O-])CCN(CC(=O)[O-])CC2)cc1.[Gd+3] (single isomer, unassigned) [Example 6]', '−1.44');

(1) CCCCOc1ccc(CC(C(=O)O)N2CCN(CC(=O)[O-])CCN(CC(=O)[O-])CCN(CC(=O)[O-])CC2)cc1.[Gd+3] (stereo not drawn) [Example 14]
(2) CCOCCOCCOc1ccc(CCC[C@@H](C(=O)O)N2CCN(C(CO)C(=O)[O-])CCN(C(CO)C(=O)[O-])CCN(C(CO)C(=O)[O-])CC2)cc1.[Gd+3] (mixture of isomers) [Example 21]
## Input Between 1 and 2 , which one has the lower reported Log P (butanol/buffer) value? Reply briefly: the label of your chosen item.
## Output 2

---

experiment: Partition coefficient (logP butanol/buffer); type: physicochemical; conditions: 1-butanol / 50 mM Tris-HCl, pH 7.4, room temperature
reported_property: Log P (butanol/buffer)

INSERT INTO assay_data (compound, numeric_value) VALUES
  ('CCOCCOCCOc1ccc(CC(C(=O)O)N2CCN(CC(=O)[O-])CCN(CC(=O)[O-])CCN(CC(=O)[O-])CC2)cc1.[Gd+3] (stereo not drawn)', '−1.63'),
  ('CCOCCOCCOc1ccc(CC(C(=O)O)N2CCN(CC(=O)[O-])CCN(CC(=O)[O-])CCN(CC(=O)[O-])CC2)nc1.[Gd+3] (stereo not drawn)', '−1.94');

(a) CCOCCOCCOCCOc1ccc(CC(C(=O)O)N2CCN(CC(=O)[O-])CCN(C(COC)C(=O)[O-])CCN(CC(=O)[O-])CC2)cc1.[Gd+3] (stereo not drawn)
(b) CCCCOc1cccc(CCC[C@@H](C(=O)O)N2CCN([C@@H](CO)C(=O)[O-])CCN([C@@H](CO)C(=O)[O-])CCN([C@@H](CO)C(=O)[O-])CC2)c1.[Gd+3]
(c) CCCC(C(=O)[O-])N1CCN(CC(=O)[O-])CCN(C(Cc2ccc(OCC)cc2)C(=O)O)CCN(CC(=O)[O-])CC1.[Gd+3] (stereo not drawn) [Example 30]
## Input Number of compounds to sort: 3. Sort criterion: Log P (butanol/buffer), ascending. # respond with the labels, arranged in the requested order
## Output a, c, b

---

assay: Partition coefficient (logP butanol/buffer); assay type: physicochemical; conditions: 1-butanol / 50 mM Tris-HCl, pH 7.4, room temperature
reported_property: Log P (butanol/buffer)

INSERT INTO assay_data (molecule, numeric_value) VALUES
  ('CCOCCOCCOc1cc(CC(C(=O)O)N2CCN(CC(=O)[O-])CCN(CC(=O)[O-])CCN(CC(=O)[O-])CC2)cc(OCCOCCOCC)c1.[Gd+3] (stereo not drawn) [Example 39]', '−1.32'),
  ('CCOCCOc1ccc(CC(C(=O)O)N2CCN(CC(=O)[O-])CCN(CC(=O)[O-])CCN(CC(=O)[O-])CC2)cc1.[Gd+3] (stereo not drawn) [Example 32]', '−1.53'),
  ('CCOCCOCCOc1ccc(C[C@H](C(=O)O)N2CCN(CC(=O)[O-])CCN(CC(=O)[O-])CCN(CC(=O)[O-])CC2)cc1.[Gd+3] [Example 4]', '−1.61');

(P) CCOc1ccc(CCCC(C(=O)O)N2CCN(CC(=O)[O-])CCN(CC(=O)[O-])CCN(CC(=O)[O-])CC2)cc1.[Gd+3] (stereo not drawn) [Example 28]
(Q) CCOCCOCCOc1ccc(CC(C(=O)O)N2CCN(CC(=O)[O-])CCN(C(CO)C(=O)[O-])CCN(CC(=O)[O-])CC2)cc1.[Gd+3] (stereo not drawn) [Example 41]
## Input Between P and Q , which one has the lower reported Log P (butanol/buffer) value? Reply briefly: the label of your chosen item.
## Output Q
(Q: −1.61, P: −0.71)

---

assay: Partition coefficient (logP butanol/buffer); assay type: physicochemical; settings: 1-butanol / 50 mM Tris-HCl, pH 7.4, room temperature
reported_property: Log P (butanol/buffer)

INSERT INTO results (compound, numeric_value) VALUES
  ('CCOCCOCCOc1ccc(CCC[C@@H](C(=O)O)N2CCN(CC(=O)[O-])CCN(CC(=O)[O-])CCN(CC(=O)[O-])CC2)cc1.[Gd+3] [Example 26]', '−1.01'),
  ('CCCC(C(=O)[O-])N1CCN(CC(=O)[O-])CCN(C(Cc2ccc(OCC)cc2)C(=O)O)CCN(CC(=O)[O-])CC1.[Gd+3] (stereo not shown) [Example 29]', '−0.53'),
  ('CCOCCOCCOc1ccc(CC(C(=O)O)N2CCN(C(CCO)C(=O)[O-])CCN(C(CCO)C(=O)[O-])CCN(C(CCO)C(=O)[O-])CC2)cc1.[Gd+3] (stereo not shown) [Example 37]', '−1.16'),
  ('CCOCCOCCOCCOc1ccc(C[C@H](C(=O)O)N2CCN(CC(=O)[O-])CCN(CC(=O)[O-])CCN(CC(=O)[O-])CC2)cc1.[Gd+3] [Example 12]', '−1.68'),
  ('CCOCCOCCOCCOc1ccc(C[C@@H](C(=O)O)N2CCN(CC(=O)[O-])CCN(CC(=O)[O-])CCN(CC(=O)[O-])CC2)c(OCCOCCOCCOCC)c1.[Gd+3] [Example 40]', '−1.43');

(1) CCOCCOCCOc1ccc(CCC[C@@H](C(=O)O)N2CCN([C@@H](CO)C(=O)[O-])CCN([C@H](CO)C(=O)[O-])CCN([C@@H](CO)C(=O)[O-])CC2)cc1.[Gd+3] [Example 35]
(2) CCOCCOCCOc1ccc(CC(C(=O)O)N2CCN(CC(=O)[O-])CCN(CC(=O)[O-])CCN(CC(=O)[O-])CC2)cn1.[Gd+3] (stereo not shown) [Example 16]
## Input Which of the two gives a bigger number for Log P (butanol/buffer): 1 or 2 ? Reply briefly: the label of your chosen item.
## Output 1
